B1: DVL3 (parent)
chain: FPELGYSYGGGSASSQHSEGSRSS

variants of: B1; assay: protein stability index of a GFP-peptide fusion (GPS, HEK-293T) (PSI 1-6); higher = more stable; conditions: c terminus: a fixed tail appended;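 also: lentivirally expressed fusions sorted by FACS into six bins by GFP to DsRed ratio, PSI derived from sequencing read proportions per bin multiplied by bin number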
Binary classification by protein stability index, with 3 as an inclusive lower bound for 1 (yes); all other cases are 0 (no).

These recorded examples may help you get a feel for the data.
Mutation Code	Classification
A13E	1 (yes)
S15E	1 (yes)
F1L	1 (yes)
G10C	0 (no)
P2K	1 (yes)

Evaluate Q16V : protein stability index at minimum 3?
0 (no)

Evaluate G20Y : protein stability index at minimum 3?
0 (no)

Evaluate E19Y : protein stability index at minimum 3?
0 (no)

Evaluate F1N : protein stability index at minimum 3?
1 (yes)

Evaluate G20Q : protein stability index at minimum 3?
1 (yes)

Evaluate F1G : protein stability index at minimum 3?
1 (yes)

Evaluate P2I : protein stability index at minimum 3?
0 (no)
